Target: T1, human MSLN-R3-his protein (human, UniProt Q13421 487-598)
T1 construct: also called human MSLN-R3 protein; hMSLN-R3-his; not shown: His tag
T1 sequence (Q13421 495-606): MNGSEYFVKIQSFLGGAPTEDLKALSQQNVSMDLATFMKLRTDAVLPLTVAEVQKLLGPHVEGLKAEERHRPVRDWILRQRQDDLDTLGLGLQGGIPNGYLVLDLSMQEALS
Assay: ELISA, coated antigen; no antibody (blank, column 'none')
metric: OD450 (OD450)
Give just the number in OD450; leave the unit off.

These solved cases illustrate the format of a correct answer.
{"binder": "S009-F3.16.1 (antibody, human IgG1, kappa, V domains shown, Human-murine chimeric antibody, human IgG1/kappa constant regions) VH: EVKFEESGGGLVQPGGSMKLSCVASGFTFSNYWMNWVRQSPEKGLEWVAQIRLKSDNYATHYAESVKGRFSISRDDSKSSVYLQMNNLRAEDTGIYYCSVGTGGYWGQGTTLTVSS VL: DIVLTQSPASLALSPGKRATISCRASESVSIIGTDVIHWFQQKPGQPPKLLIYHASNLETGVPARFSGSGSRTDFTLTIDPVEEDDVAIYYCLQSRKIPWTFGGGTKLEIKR", "reading": 0.09}
{"binder": "S009-F3.38.10 (antibody, human IgG1, kappa, V domains shown, Human-murine chimeric antibody, human IgG1/kappa constant regions) VH: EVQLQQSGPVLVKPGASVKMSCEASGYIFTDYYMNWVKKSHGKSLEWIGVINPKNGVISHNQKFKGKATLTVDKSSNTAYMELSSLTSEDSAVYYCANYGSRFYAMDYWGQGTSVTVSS VL: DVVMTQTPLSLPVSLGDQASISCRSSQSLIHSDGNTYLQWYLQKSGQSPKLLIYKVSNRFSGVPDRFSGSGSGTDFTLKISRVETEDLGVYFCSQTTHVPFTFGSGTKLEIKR", "reading": 0.09}
{"binder": "S009-F3.80.22 (antibody, human IgG1, kappa, V domains shown, Human-murine chimeric antibody, human IgG1/kappa constant regions) VH: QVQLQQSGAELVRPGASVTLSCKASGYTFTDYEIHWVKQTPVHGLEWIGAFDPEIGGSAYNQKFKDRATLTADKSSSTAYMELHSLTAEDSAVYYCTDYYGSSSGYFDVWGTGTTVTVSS VL: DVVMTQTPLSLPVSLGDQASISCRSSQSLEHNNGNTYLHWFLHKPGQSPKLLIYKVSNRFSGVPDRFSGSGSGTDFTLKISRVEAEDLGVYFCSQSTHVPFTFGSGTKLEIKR", "reading": 0.08}

stdin: Give the value of OD450 reported for the following: S009-F3.45.21 (antibody, human IgG1, kappa, V domains shown, Human-murine chimeric antibody, human IgG1/kappa constant regions) VH: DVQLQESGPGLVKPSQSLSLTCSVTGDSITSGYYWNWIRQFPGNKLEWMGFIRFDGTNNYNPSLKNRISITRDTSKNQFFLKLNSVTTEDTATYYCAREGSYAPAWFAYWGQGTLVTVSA VL: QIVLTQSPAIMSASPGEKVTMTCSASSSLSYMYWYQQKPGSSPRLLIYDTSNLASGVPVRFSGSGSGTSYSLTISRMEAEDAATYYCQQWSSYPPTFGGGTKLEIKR
stdout: 0.09
